The measurements presented in this section are drawn from paper PMC11359831.

# Assayed system: human recombinant BACE-1 (hBACE-1) (Homo sapiens)
# Sequence (P56817 46-501): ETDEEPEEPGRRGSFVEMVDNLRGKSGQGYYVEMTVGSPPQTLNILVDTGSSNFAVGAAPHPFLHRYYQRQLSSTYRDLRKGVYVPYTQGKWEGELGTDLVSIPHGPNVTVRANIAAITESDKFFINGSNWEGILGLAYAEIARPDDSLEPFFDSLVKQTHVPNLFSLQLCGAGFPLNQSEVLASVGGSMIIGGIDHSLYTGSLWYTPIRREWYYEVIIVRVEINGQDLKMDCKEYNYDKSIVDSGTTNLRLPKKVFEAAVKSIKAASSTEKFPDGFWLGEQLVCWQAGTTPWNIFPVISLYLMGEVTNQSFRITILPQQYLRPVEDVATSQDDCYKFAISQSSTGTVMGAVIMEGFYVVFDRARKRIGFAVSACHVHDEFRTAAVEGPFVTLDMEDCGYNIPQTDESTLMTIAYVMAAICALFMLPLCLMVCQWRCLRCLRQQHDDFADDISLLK
# Test method notes: In vitro hBACE-1 inhibition (fluorometric method)
pIC50: −log10 of the molar value.
Reported metric: pIC50

[
  {
    "Molecule": "O=c1c(O)c(-c2cc(O)c(O)c(O)c2)oc2cc(O)cc(O)c12 [Myr, myricetin, reference compound]",
    "Lt gt eq": "=",
    "Recorded result": 5.38
  },
  {
    "Molecule": "CC1=CC2Cc3nc4cc(Cl)ccc4c(NCCCCCCCCCNC(=O)c4cc(O)c5c(c4)C(=O)c4cccc(O)c4C5=O)c3C(C1)C2 (stereo not drawn)",
    "Lt gt eq": "=",
    "Recorded result": 5.82
  },
  {
    "Molecule": "CC1=CC2Cc3nc4cc(Cl)ccc4c(NCCCCCCCCCNC(=O)c4cccc(C(=O)c5ccccc5)c4)c3C(C1)C2 (stereo not drawn)",
    "Lt gt eq": "≥",
    "Recorded result": 4.82
  },
  {
    "Molecule": "CC1=CC2Cc3nc4cc(Cl)ccc4c(NCCCCCCCCCNC(=O)c4ccc5c(c4)C(=O)c4ccccc4C5=O)c3C(C1)C2 (stereo not drawn)",
    "Lt gt eq": "=",
    "Recorded result": 5.54
  },
  {
    "Molecule": "CC(=O)c1cccc(C(=O)NCCCCCCCCCNc2c3c(nc4cc(Cl)ccc24)CC2C=C(C)CC3C2)c1 (stereo not drawn)",
    "Lt gt eq": "≥",
    "Recorded result": 4.82
  },
  {
    "Molecule": "CC1=CC2Cc3nc4cc(Cl)ccc4c(NCCCCCCCCCNC(=O)c4ccc5c(c4)C(=O)c4ccccc4-5)c3C(C1)C2 (stereo not drawn)",
    "Lt gt eq": "=",
    "Recorded result": 5.25
  }
]

----------
# Test method notes: Plasma stability, rat plasma
# Assay type: in vitro ADME
# Study conditions: rat, plasma, 37 °C, 6 h, read-out: Plasma Stability % Remaining Compound, rat, 6 h
Reported metric: remaining at 6 h, 5 μM (%)

[
  {
    "Compound": "CC1=CC2Cc3nc4cc(Cl)ccc4c(NCCCCCCCCCNC(=O)c4ccc5c(c4)C(=O)c4ccccc4C5=O)c3C(C1)C2 (centres unmarked)",
    "Reported metric": "remaining at 6 h, 5 μM",
    "Units of measure": "%",
    "Recorded result": 77.2
  },
  {
    "Compound": "CC(=O)c1cccc(C(=O)NCCCCCCCCCNc2c3c(nc4cc(Cl)ccc24)CC2C=C(C)CC3C2)c1 (centres unmarked)",
    "Reported metric": "remaining at 6 h, 5 μM",
    "Units of measure": "%",
    "Recorded result": 86
  },
  {
    "Compound": "CC1=CC2Cc3nc4cc(Cl)ccc4c(NCCCCCCCCCNC(=O)c4ccc5c(c4)C(=O)c4ccccc4-5)c3C(C1)C2 (centres unmarked)",
    "Reported metric": "remaining at 6 h, 5 μM",
    "Units of measure": "%",
    "Recorded result": 84.7
  },
  {
    "Compound": "CC1=CC2Cc3nc4cc(Cl)ccc4c(NCCCCCCCCCNC(=O)c4cc(O)c5c(c4)C(=O)c4cccc(O)c4C5=O)c3C(C1)C2 (centres unmarked)",
    "Reported metric": "remaining at 6 h, 5 μM",
    "Units of measure": "%",
    "Recorded result": 67.9
  },
  {
    "Compound": "CC1=CC2Cc3nc4cc(Cl)ccc4c(NCCCCCCCCCNC(=O)c4cccc(C(=O)c5ccccc5)c4)c3C(C1)C2 (centres unmarked)",
    "Reported metric": "remaining at 6 h, 5 μM",
    "Units of measure": "%",
    "Recorded result": 92.4
  }
]
